Molecular target: Kv7.2/3 channels (Homo sapiens, UniProt O43525+O43526)
Construct: expressed in transfected cells; host or cells: CHO cells
Assay: Kv7.2/3 channels coexpressed in CHO cells, whole-cell patch-clamp
Type: cell-based
Conditions: compounds whose Activity is Blocker; read-out: EC50
REPORTED METRIC: pEC50
// scale note: pEC50 = -log10(conc_M); give the bare number

Prompt: Would you mind telling me what pEC50 value was observed for CC(C)COC(=O)Cc1ccccc1Nc1c(Cl)cccc1Cl ?
Completion: 4.30

Prompt: Would you mind telling me what pEC50 value was observed for O=C(Cc1ccccc1Nc1c(Cl)cccc1Cl)OCC1CO1 (stereo not drawn) ?
Completion: 4.00

Further cases:
Prompt: Would you mind telling me what pEC50 value was observed for Cl.NCCOCCOC(=O)Cc1ccccc1Nc1c(Cl)cccc1Cl ?
Completion: 4.96

----------
Target: Kv7.2/3 channels (Homo sapiens, UniProt O43525+O43526)
Construct: expressed in transfected cells; host or cells: CHO cells
Test: Kv7.2/3 channels coexpressed in CHO cells, whole-cell patch-clamp
Type: cell-based
Settings: M-channel modulation; Kv7.2 and Kv7.3 subunits coexpressed in CHO cells
REPORTED METRIC: Activity

Prompt: Test system Kv7.2/3 channels (Homo sapiens, UniProt O43525+O43526); read-out Activity; what value for O=C(Cc1cc([N+](=O)[O-])ccc1Nc1c(Cl)cccc1Cl)NCCO [NH30] ?
Completion: Opener

Prompt: Test system Kv7.2/3 channels (Homo sapiens, UniProt O43525+O43526); read-out Activity; what value for O=C(Cc1ccccc1Nc1c(Cl)cccc1Cl)OCCOCCO [NH6] ?
Completion: Opener

Prompt: Test system Kv7.2/3 channels (Homo sapiens, UniProt O43525+O43526); read-out Activity; what value for O=C(Cc1ccccc1Nc1c(Cl)cccc1Cl)NCCO [NH27] ?
Completion: Opener

----------
Target: Kv7.2/3 channels (Homo sapiens, UniProt O43525+O43526)
Assay: Kv7.2/3 channels coexpressed in CHO cells, whole-cell patch-clamp
Conditions: recombinant Kv7.2/3 in CHO cells; read-out: IC50, blockade of the K+ currents
REPORTED METRIC: IC50 (µM)
Report only the number, with the unit µM understood.

Prompt: Would you mind telling me what IC50 value was observed for Cl.NCCOCCOC(=O)Cc1ccccc1Nc1c(Cl)cccc1Cl ?
Completion: 11

----------
Entries and their ΔV50 (mV) values follow.
Biological target: Kv7.2/3 channels (Homo sapiens, UniProt O43525+O43526)
Construct: expressed in transfected cells; host or cells: CHO cells
Assay: Kv7.2/3 channels coexpressed in CHO cells, whole-cell patch-clamp
Format: cell-based
Conditions: left-shift of the activation curve of Kv7.2/3 channels
Report only the number, with the unit mV understood.

Example compounds with recorded ΔV50 (mV):
Prompt: Would you mind telling me what ΔV50 (mV) value was observed for O=C(NCCOCCO)c1ccccc1Nc1cccc(C(F)(F)F)c1 ?
Completion: −5.5

Prompt: Would you mind telling me what ΔV50 (mV) value was observed for O=C(Cc1cc([N+](=O)[O-])cc([N+](=O)[O-])c1Nc1c(Cl)cc([N+](=O)[O-])cc1Cl)NCCO ?
Completion: −31.3

Prompt: Would you mind telling me what ΔV50 (mV) value was observed for Cc1c(Cl)cccc1Nc1ccccc1C(=O)NCCOCCO ?
Completion: −3.7

Further cases:
Prompt: Would you mind telling me what ΔV50 (mV) value was observed for O=C(Cc1ccccc1Nc1c(Cl)cccc1Cl)NCCOCCO ?
Completion: −12.6

Prompt: Would you mind telling me what ΔV50 (mV) value was observed for O=C(Cc1cc([N+](=O)[O-])ccc1Nc1c(Cl)cccc1Cl)NCCO ?
Completion: −12.2

Prompt: Would you mind telling me what ΔV50 (mV) value was observed for O=C(Cc1ccccc1Nc1c(Cl)cccc1Cl)OCCO ?
Completion: −4.1

Prompt: Would you mind telling me what ΔV50 (mV) value was observed for Cc1ccc(Cl)c(Nc2ccccc2C(=O)O)c1Cl [Meclofenamic, Meclofenamic acid, reference compound] ?
Completion: −22.7

Prompt: Would you mind telling me what ΔV50 (mV) value was observed for Cc1cccc(Nc2ccccc2C(=O)NCCOCCO)c1C ?
Completion: −8.4

Prompt: Would you mind telling me what ΔV50 (mV) value was observed for O=C(Cc1ccccc1Nc1c(Cl)cccc1Cl)OCCOCCO ?
Completion: −18.7
